- System name: Cannabinoid receptor 1 (Homo sapiens, UniProt P21554); further: assay procedure not described here
- Sequence (P21554 whole entry): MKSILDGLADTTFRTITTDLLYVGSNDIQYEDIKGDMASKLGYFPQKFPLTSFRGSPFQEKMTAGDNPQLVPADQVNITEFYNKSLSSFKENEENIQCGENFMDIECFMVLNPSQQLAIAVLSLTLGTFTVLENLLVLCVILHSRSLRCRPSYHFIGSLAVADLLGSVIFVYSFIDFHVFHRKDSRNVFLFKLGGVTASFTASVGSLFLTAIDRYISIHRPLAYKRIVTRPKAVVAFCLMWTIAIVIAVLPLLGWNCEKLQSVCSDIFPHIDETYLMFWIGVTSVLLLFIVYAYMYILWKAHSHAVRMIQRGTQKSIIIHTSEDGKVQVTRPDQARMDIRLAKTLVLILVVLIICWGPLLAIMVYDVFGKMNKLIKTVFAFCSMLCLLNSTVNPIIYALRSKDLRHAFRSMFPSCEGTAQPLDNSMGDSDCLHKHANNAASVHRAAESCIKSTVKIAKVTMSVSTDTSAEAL
- Assay type: functional, cell-based
Readout type: AC50

Below, each entry is followed by its recorded AC50 result.
Report AC50 for C[C@H]1CNCCc2ccc(Cl)cc21 [LORCASERIN] please. 2.6 µM

Report AC50 for CC(C)(C)C(=O)Oc1ccc(S(=O)(=O)Nc2ccccc2C(=O)NCC(=O)O)cc1 please. > 30 µM

Report AC50 for Cc1oc(=O)oc1CN1CCN(c2cc3c(cc2F)c(=O)c(C(=O)O)c2n3C(C)S2)CC1 (stereo unspecified) [PRULIFLOXACIN] please. > 30 µM

Report AC50 for CC(=O)Nc1ccc(O)cc1 [ACETAMINOPHEN] please. > 30 µM

Report AC50 for O=C(O)CCCCCCNC1c2ccccc2CCc2ccccc21 [AMINEPTINE] please. > 30 µM

Proceed to the following item.
Report AC50 for CC[C@@H]1C(=O)OC[C@@H]1Cc1cncn1C [PILOCARPINE] please. > 30 µM
